# Tested on: RXRa homodimer (NR concentration 180 nM)
# ASSAY_REMARKS: PBM binding z-score (relative to random genomic background probes); higher = stronger binding; sequences stand for … in GC…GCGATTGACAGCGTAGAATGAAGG
RECORDED_ENDPOINT: PBM binding z-score
Answers are plain numbers.

Solved cases below.
[[record]]
item_sequence = "CCGACTGGGCCAAGGTCATTGATCAGTCAAAGCA"
result = 3.09

[[record]]
item_sequence = "TCTCGGAGGACACGAAGGTCATAGCTTTCCAGAG"
result = 3.28

[[record]]
item_sequence = "TCGAGTAGGTTACCAATGGAGCATTCAGCTTTCT"
result = 0.319

[[record]]
item_sequence = "CCTTACAGGTCACTCCAGGTTATAGCATCGGAGT"
result = 4.35

[[record]]
item_sequence = "TGTCCAAGTTCAAAGGTAACGTAAGTATCCACAC"
result = 5.21

[[record]]
item_sequence = "AGAATGAGGTTATCAAAGATCAGGGAAACGCTTG"
result = 2.28


Fill in PBM binding z-score for each of the 3 sequences listed.
1. AGACTGAGGTTATACGTAGATCAGGGAAGAAAGT
2. CGTCCAAGGTCAATGCTATGTCAGTGAAAGCATT
3. CCGACTGGGGCAAAGGTTACCATTCTCAGTACGA

1. 2.09
2. 4.94
3. 3.26

====

# Test system: LXRb homodimer (NR concentration 270 nM)
# ASSAY_REMARKS: PBM binding z-score (relative to random genomic background probes); higher = stronger binding; sequences stand for … in GC…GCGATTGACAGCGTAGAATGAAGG
Could you please report measured PBM binding z-score for the items listed next?
Answers are plain numbers.

Need PBM binding z-score for each of these sequences.
1. CCTACTGGGCCACGAAATGTCATTGATTCAGTGA
2. ACTAGTTGGTCAGCTGATGTCACACACAATTCGG
3. CGTCCAAGGTCAGAGAGGTCTGTGAATGCCGAGT
4. GTACCAAGGTGAATCGGTCGTTGATGAGTAGGCG
5. ACTAGCAGGCCAAGGGTCACTCACGATTAGTCCG

1. -0.393
2. -0.112
3. -0.51
4. -0.693
5. -0.177

Recall and state the measured PBM binding z-score for `CCGACTGGGGCATAGGGTTACCATAAGCCAGCCC` .
-0.905

====

# System: PPARg:RXRa (NR concentration 180 nM, RXRa partner concentration 90 nM)
# ASSAY_REMARKS: PBM binding z-score (relative to random genomic background probes); higher = stronger binding; sequences stand for … in GC…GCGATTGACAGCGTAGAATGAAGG
Think of 2 as a floor: if PBM binding z-score stands on it or above, it is true (1); beneath it, false (0).

Decide: PBM binding z-score of `ACTCGGAGGACAAAGGTTAGAGCTACGCCAGTGA` >= 2?
true (1)

// inclusive: PBM binding z-score at least 2? input: `TCTAGTTGGACACGGAGGTCACACACGACGGGTA`
true (1)

PBM binding z-score >= 2 for `CGAACTAGGTCATCCAGGACAGTGACTACATTGA` ?
true (1)

API: above_or_equal(metric=PBM binding z-score, cutoff=2) for item `ATCTCTAAGTAAAAGTTCAGTGAATCCCGAGGAT`
false (0)

Assess whether reported PBM binding z-score for `GCGACTGGGGCATGAGCAGGTTACCATAACTTAA` sits at 2 or higher.
false (0)

Given the entry `CCTCGGAGTACAGAAGGTCAGAGCTGTCCGCTTT` , answer whether its PBM binding z-score meets or surpasses 2.
false (0)

Would you say `TCAGATAGGTAAACAGGTGAAAGTCCGTAAGTTA` shows PBM binding z-score at minimum 2?
false (0)

Could you please find out whether `CAAACTAGGTCACAGAGGTGAAAGTCCGTGCGTA` has PBM binding z-score that meets 2 or exceeds it?
true (1)

Check this sequence for PBM binding z-score at or above 2: `CGTCCAAGGTCAGCTGGTCAGTGAAAGCGACGTG`
true (1)

Test whether the sequence `CCTCCTAGGTCATGGTCAGCTAATCTACAGTATG` records PBM binding z-score of 2 or higher.
true (1)
